Target: GST-SBP-SLBP (stem-loop binding protein) (Homo sapiens, UniProt Q14493 1-270)
Test: targeted RNA Bind-n-Seq; RBNS binding buffer: 25 mM Tris pH 7.5, 150 mM KCl, 3 mM MgCl2, 0.1% Tween, 0.5 mg/mL BSA, 1 mM DTT; 27 nM protein, 750 pM RNA pool; temperature not stated; high values mean tight binding
Conditions: protein: recombinant; tags: N-terminal GST and SBP (pGEX6P1-SBP); structured_RNA
In all, about 11,000 sequences were measured (“log2 fold change”: median about 0.00022, highest 2% from about 0.34 on). This is one part of the list.
So basically, if binding signal comes in under 0.4 log2 fold change it's MET, and if it's 0.4 log2 fold change or more it's NOT MET.

Answer whether the sequence GGUCACGUCUCAAUCAACUCUAUUCCCAGGGAAAACCCUGGCAUUUUCAACAGCUCGCAGUCAAG has binding signal strictly less than 0.4 log2 fold change
NOT MET

Answer whether the sequence GGUCACGUCUCAAUCAACUCUUUAGAGGGGGGGAAAACCCCUUUACCCUCGAUAUCAACAGCUCGCAGUCAAG has binding signal strictly less than 0.4 log2 fold change
MET

Answer whether the sequence GGUCACGUCUCAAUCAACUCAACAGAGGGGGGGAAAACCCCUUUACCCUCAUUUUCAACAGCUCGCAGUCAAG has binding signal strictly less than 0.4 log2 fold change
NOT MET

Answer whether the sequence GGUCACGUCUCAAUCAACUCUUUUUCCAGGGAAACCCCUGGUAUACUCAACAGCUCGCAGUCAAG has binding signal strictly less than 0.4 log2 fold change
NOT MET

Answer whether the sequence GGUCACGUCUCAAUCAACUCUACUCCCAGGGAAAACCCUGGUAAUUUCAACAGCUCGCAGUCAAG has binding signal strictly less than 0.4 log2 fold change
NOT MET

Answer whether the sequence GGUCACGUCUCAAUCAACUCUAUUCCCAGGGAAACCCCUGGCAUACUCAACAGCUCGCAGUCAAG has binding signal strictly less than 0.4 log2 fold change
MET

Answer whether the sequence GGUCACGUCUCAAUCAACUCAACUUCCAGGGAAAACCCUGGCAUUUUCAACAGCUCGCAGUCAAG has binding signal strictly less than 0.4 log2 fold change
MET

Answer whether the sequence GGUCACGUCUCAAUCAACUCCAUAGAGGGGGGGAAAACCCCUUUACCCUCAUUUUCAACAGCUCGCAGUCAAG has binding signal strictly less than 0.4 log2 fold change
MET
